Parameter: TGI. Scope: all listed entries.
Tested on: OVCAR-8 ovarian
Assay: NCI tumour cell line growth inhibition, 48 h
observation-type: TGI

| compound | observation-type | recorded-measurement |
| --- | --- | --- |
| CCOP1(=O)OCC2OC(n3cnc4c(N)ncnc43)C(O)C2O1 (stereo unspecified) | TGI | > 100 µM |
| CC(C)Oc1cc(OCC(=O)O)cc(C(=O)N(CCC(N)=O)C(=O)Nc2ccc(C(=O)O)cc2OC(C)C)c1 | TGI | > 100 µM |
| Oc1ccc2c(c1)-c1c(c3cc(O)ccc3n1CCN1CCOCC1)CC2 | TGI | 86.8 µM |
| COc1ccc(CN2CCc3c(Cl)nc(N)nc3C2=O)c(OC)c1 | TGI | > 100 µM |
| CC(=O)Oc1c(-c2ccccc2)[nH]c2cc([N+](=O)[O-])c(/C(Cl)=C/c3ccccc3)cc12 | TGI | 17.7 µM |
| Nc1nc2nc3c(nc2c(=O)[nH]1)CN(c1ccc(C(=O)O)cc1)C3=O | TGI | > 100 µM |
| O=C(Cn1ccnc1[N+](=O)[O-])NCCO | TGI | > 100 µM |
| CC(=O)N1N=C(c2c(O)ccc3ccccc23)CC1C(=O)c1ccco1 (stereo unspecified) | TGI | > 100 µM |
| CCN(CC)CCCCCCCCNc1c2ccc(Cl)cc2nc2ccc(OC)cc12 | TGI | 3.64 µM |
| Clc1ccc(Cl)c(N/N=C\c2c[nH]c3ccccc23)c1 | TGI | 29.4 µM |
| O=[N+]([O-])C(/C(Cl)=C(/Cl)N1CCOCC1)=C1\NCCO1 | TGI | > 100 µM |
| Cc1c(C(=O)/C=C/c2ccco2)[n+](=O)c2ccccc2n1[O-] | TGI | > 100 µM |
| Cc1cc(O)c(C(C)C)cc1NC(=O)Nc1cccc2ccccc12 | TGI | > 100 µM |
| CN(C)CCCn1cnc2ncccc2c1=O | TGI | > 100 µM |
| O=C(Nc1nc2ncn(CCOC(=O)c3ccccc3)c2c(=O)[nH]1)c1ccccc1 | TGI | > 100 µM |
| CCOC(=O)C1=CN=C2C(=O)N(c3ccccc3)N(C)C2(C)C1=N (stereo unspecified) | TGI | > 100 µM |
| CCOC(=O)c1cnc2ccc(Cl)cc2c1NCCCN(C)C | TGI | 47 µM |
| COCn1c(C)c(C)c2c(=O)oc(=O)[nH]c21 | TGI | > 100 µM |
| CCCCNC(=S)Nn1c(-c2ccccc2)nc2ccccc2c1=O | TGI | > 100 µM |
| CC[C@]1(O)C[C@@H]2CN(Cc3c([nH]c4ccccc34)[C@@](C(=O)OC)(c3cc4c(cc3OC)N(C)[C@H]3[C@@](O)(C(=O)OC)[C@H](OC(C)=O)[C@]5(CC)[C@@H]6C[C@@H]6CN6CC[C@]43[C@@H]65)C2)C1 | TGI | > 4.38 µM |
| Cc1cc(S(=O)(=O)Nc2nc3ccsc3c(=O)n2N)c(S)cc1Cl | TGI | > 100 µM |
| [N-]=[N+]=Nc1ccc(S(=O)(=O)Oc2cc(OS(=O)(=O)c3ccc(N=[N+]=[N-])cc3)cc(OS(=O)(=O)c3ccc(N=[N+]=[N-])cc3)c2)cc1 | TGI | > 10 µM |
| Cc1ncc(C(=O)Nc2ccc(CN3CCN(C)CC3)c(C(F)(F)F)c2)cc1C#Cc1c(N)ncc2ccc(C#N)cc12 | TGI | 21.2 µM |
| COC(=O)C1=CC(=O)C(C(=O)Nc2ccc(OC)cc2)C(c2ccccc2)O1 (stereo unspecified) | TGI | 96.8 µM |
| Cc1cc(Cl)n2c(nc3ccccc32)c1C#N | TGI | 11.9 µM |
| COc1ccc(NC(=O)c2ccc(NC3=C(Cl)C(=O)N(Cc4ccccc4)C3=O)cc2)cc1 | TGI | 18.2 µM |
| CC(C)OC(=O)c1ccc(NCC2=CC(=O)C=CC2=O)cc1Cl | TGI | > 51.4 µM |
| COc1ccc(/C=C2/SC(=Nc3c(C)nn(-c4ccccc4)c3N)NC2=O)cc1 | TGI | 77.9 µM |
| O=C1COC(c2ccccc2O)=NN1CCCN1CCCC1 | TGI | > 100 µM |
| C(=N\Nc1ncc(-c2cc3cc4c(cc3o2)OCO4)s1)/c1c[nH]c2ccccc12 | TGI | > 100 µM |
| O=C(O)CC(NC(=O)Nc1ccc([N+](=O)[O-])cc1)C(=O)Nc1ccc([N+](=O)[O-])cc1 (stereo unspecified) | TGI | > 100 µM |

Ref: PubChem BioAssay (NCI)
